Where these numbers come from: patent US5416070A

# Test system: human peripheral blood monocytes
# assay_explanation: Activation of monocytes in vitro measured by production of tumor necrosis factor (ELISA)
# Assay type: cell-based
# conditions: Table 7, Experiment 1, 1.0 μg/ml, 24 Hours
What TNF (pg/ml) at given Concentration of Compound was measured for each of the following?
Note to self: number, then unit, no commentary.

Q. May I ask what TNF (pg/ml) at given Concentration of Compound has been recorded for CCCCCCCCCCCCCCCC(=O)OCC(COC(=O)C(C)NC(=O)CCC(NC(=O)C(NC(=O)C(C)OC1C(NC(C)=O)C(O)OC(CO)C1OC1OC(CO)C(O)C(O)C1NC(C)=O)C(C)C)C(N)=O)OC(=O)CCCCCCCCCCCCCCC [IIF, GlcNAcMurNAc-F-Val-D-isoGln-F-Ala-DpG] ?
A. 480 pg/mL

Q. Could you do the same for CCCCCCCCCCCCCCCC(=O)OCC(COC(=O)CCCCCCCCCCCCCCC)NC(=O)C(C)NC(=O)CCC(NC(=O)C(NC(=O)C(C)OC1C(NC(C)=O)C(O)OC(CO)C1OC1OC(CO)C(O)C(O)C1NC(C)=O)C(C)O)C(N)=O [ID, GlcNAcMurNAc-F-Thr-D-isoGln-F-Ala-NHDPG] , please?
A. 250 pg/mL

Q. Record: CCCCCCCCCCCCCCCC(=O)OCC(COC(=O)C(C)NC(=O)CCC(NC(=O)C(NC(=O)C(C)OC1C(NC(C)=O)C(O)OC(CO)C1OC1OC(CO)C(O)C(O)C1NC(C)=O)C(C)O)C(N)=O)OC(=O)CCCCCCCCCCCCCCC [IID, GlcNAcMurNAc-F-Thr-D-isoGln-F-Ala-DPG]
A. 1080 pg/mL

Q. Continue with CCCCCCCCCCCCCCCC(=O)OCC(COC(=O)C(C)NC(=O)CCC(NC(=O)C(C)NC(=O)C(C)OC1C(NC(C)=O)C(O)OC(CO)C1OC1OC(CO)C(O)C(O)C1NC(C)=O)C(N)=O)OC(=O)CCCCCCCCCCCCCCC (centres unmarked) [Compound IIA]
A. 620 pg/mL

Q. Next record, please: CC(=O)NC1C(OC2C(CO)OC(O)C(NC(C)=O)C2OC(C)C(=O)NC(C(=O)NC(CCC(=O)O)C(N)=O)C(C)O)OC(CO)C(O)C1O [GlcNAcMurNAc-L-Thr-D-isoGln]
A. 1050 pg/mL
